target: human V1a receptor (Homo sapiens); construct: expressed in transfected cells; host or cells: CHO K1 (ATCC), also stably transfected with a modified aequorin; assay: Cellular in vitro assay for determining vasopressin receptor activity (V1a, aequorin luminescence); format: cell-based; settings: selectivity ratio of IC50 hV2 to IC50 hV1a
Sequence (P37288 whole entry): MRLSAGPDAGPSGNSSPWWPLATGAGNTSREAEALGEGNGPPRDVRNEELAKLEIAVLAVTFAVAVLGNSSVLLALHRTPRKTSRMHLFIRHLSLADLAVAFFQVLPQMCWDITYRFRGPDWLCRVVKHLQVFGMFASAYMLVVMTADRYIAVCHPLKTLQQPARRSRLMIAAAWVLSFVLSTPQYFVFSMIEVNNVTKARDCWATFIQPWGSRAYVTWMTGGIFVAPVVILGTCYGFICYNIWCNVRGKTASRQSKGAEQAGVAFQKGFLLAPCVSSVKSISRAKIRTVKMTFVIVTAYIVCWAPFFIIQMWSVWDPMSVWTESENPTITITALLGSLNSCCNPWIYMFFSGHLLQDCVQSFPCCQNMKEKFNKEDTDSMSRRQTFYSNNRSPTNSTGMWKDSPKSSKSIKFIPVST
Decide using ratio IC50 hV2/hV1a alone. Strictly below 6: met. Equal to or above 6: not met.

compound	answer_label
CCNC(=O)OCc1nc(Cn2nc(-c3ccc(Cl)cc3)n(C[C@H](OC(=O)NCC)C(F)(F)F)c2=O)nn1-c1ccccc1C(F)(F)F	not met
C[C@@H](OC(N)=O)c1nc(Cn2nc(-c3ccc(Cl)cc3)n(C[C@H](OC(N)=O)C(F)(F)F)c2=O)nn1-c1ccccc1Cl	not met
C[C@@H](OC(N)=O)c1nc(Cn2nc(-c3ccc(Cl)cc3)n(C[C@H](O)C(F)(F)F)c2=O)nn1-c1ncccc1F	met
O=C(NC(CO)c1nc(Cn2nc(-c3ccc(Cl)cc3)n(C[C@H](O)C(F)(F)F)c2=O)nn1-c1ccccc1Cl)C(F)(F)F (mixture of isomers) [Example 95]	not met
C[C@H](OC(N)=O)c1nc(Cn2nc(-c3ccc(Cl)cc3)n(C[C@H](O)C(F)(F)F)c2=O)nn1-c1c(Cl)cccc1Cl	met

Could you please tell me whether ratio IC50 hV2/hV1a recorded for CN1C(=O)CCC1c1nc(Cn2nc(-c3ccc(Cl)cc3)n(C[C@H](O)C(F)(F)F)c2=O)nn1-c1ccccc1Cl (single isomer, unassigned) [Example 72] is less than 6? not met

* * *

biological target: human V2 receptor (Homo sapiens, UniProt P30518); assay: Cellular in vitro assay for determining vasopressin receptor activity (V2, CRE-luciferase); settings: CHO cell line transfected with the human V2 receptor; [Arg8]-vasopressin at EC50 concentration; read-out: IC50 hV2
Sequence (P30518 whole entry): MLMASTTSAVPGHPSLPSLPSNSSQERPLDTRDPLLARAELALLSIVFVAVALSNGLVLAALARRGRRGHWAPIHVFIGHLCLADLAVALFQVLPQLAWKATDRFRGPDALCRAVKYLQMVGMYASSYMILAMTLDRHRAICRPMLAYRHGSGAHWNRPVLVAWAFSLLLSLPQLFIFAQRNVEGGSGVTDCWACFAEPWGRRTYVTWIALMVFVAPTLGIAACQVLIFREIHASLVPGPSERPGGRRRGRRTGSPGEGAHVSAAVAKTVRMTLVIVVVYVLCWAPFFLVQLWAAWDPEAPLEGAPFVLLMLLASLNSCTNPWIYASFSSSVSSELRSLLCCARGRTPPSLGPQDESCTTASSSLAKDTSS
Where a name gives a salt, the structure may show the parent alone.
quantity: pIC50
Conceptually, pIC50 converts a concentration in mol/L into minus its log10.

compound	pIC50
CN1C(=O)CCC1c1nc(Cn2nc(-c3ccc(Cl)cc3)n(C[C@H](O)C(F)(F)F)c2=O)nn1CCC(F)(F)F (single isomer, unassigned) [Example 131]	5.81
NC1(c2nc(Cn3nc(-c4ccc(Cl)cc4)n(C[C@H](O)C(F)(F)F)c3=O)nn2-c2ccccc2Cl)CC1 [Example 76, hydrochloride]	8.40
O=C1NC(c2nc(Cn3nc(-c4ccc(Cl)cc4)n(C[C@H](O)C(F)(F)F)c3=O)nn2-c2ccccc2Cl)CO1 (single isomer, unassigned) [Example 99]	7.68
C[C@@H](OC(N)=O)c1nc(Cn2nc(-c3ccc(Cl)cc3)n(C[C@H](O)C(F)(F)F)c2=O)nn1-c1cccc(Cl)c1	8.74

Note: attention shifts to another entry.
Kindly state the measured pIC50 obtained for CC(=O)NC(C)c1nc(Cn2nc(-c3ccc(Cl)cc3)n(C[C@H](O)C(F)(F)F)c2=O)nn1-c1ccccc1Cl (mixture of isomers) [Example 64] with human V2 receptor (Homo sapiens, UniProt P30518). 7.75

* * *

Molecular target: UniProt:P30518
Experiment: Cellular in vitro assay for determining vasopressin receptor activity (V2, CRE-luciferase)
Conditions: CHO cell line transfected with the human V2 receptor; [Arg8]-vasopressin at EC50 concentration; read-out: IC50 hV2
Experimental: B-1. Cellular In Vitro Assay for Determining Vasopressin Receptor Activity The identification of agonists and antagonists of the V1a and V2 vasopressin receptors from humans, rats and dogs as well as the quantification of the activity of the compounds of the invention is carried out using recombinant cell lines. […] The bioluminescence of the cell lines is detected using a suitable luminometer [Milligan G, Marshall F, Rees S, Trends in Pharmacological Sciences 17, 235-237 (1996)]. […]
Form field: IC50 (one value per entry).
Express your answer in nM, writing the number without its unit.

Sample records with IC50:
structure_smiles_string	value_units	IC50
C[C@@H](OC(N)=O)c1nc(Cn2nc(-c3ccc(Cl)cc3)n(C[C@H](O)C(F)(F)F)c2=O)nn1-c1ccccc1Cl	nM	7.42
CCNC(=O)OCc1nc(Cn2nc(-c3ccc(Cl)cc3)n(C[C@H](O)C(F)(F)F)c2=O)nn1-c1ccccc1C(F)(F)F	nM	16.7

Note: attention shifts to another entry.
Can you share its IC50? I mean this compound: `C[C@@H](OC(N)=O)c1nc(Cn2nc(-c3ccc(Cl)cc3)n(C[C@H](O)C(F)(F)F)c2=O)nn1-c1ccc(F)cc1Cl` 13.4
